- System: SW-620 colon
- experiment_summary: NCI-60 one-dose screen, 48 h (100 = growth as untreated, 0 = no growth, -100 = all killed)
- condition_description: 10 µM unless noted
About 83,000 compounds went through this panel and 20% of them were active in at least one assay; those are over-represented in the sample as a whole.
observation_type: growth (%)
Numbers only, in %.

Study these solved cases before continuing.
{"compound": "CS(=O)(=O)Nc1cncc(-c2ccc3ncnc(NCc4ccccc4)c3c2)c1", "numeric_result": 38.9}
{"compound": "COc1ccc(N=Nc2c(N)nn3c(-c4cc5cc(Br)ccc5oc4=O)ccnc23)cc1", "numeric_result": 56.1}
{"compound": "CN(C)CCCc1ccc(Nc2cnn(C)c(=O)c2Cl)cc1", "numeric_result": 109}

Give growth for all compounds that follow.
1. CC1=C(C(=O)Nc2ccccc2)C(c2cccc3ccccc23)n2c(nc3ccccc32)N1 (stereo not given)
2. CC1=C(C(=O)Nc2ccccc2)C(c2cccc(Cl)c2Cl)n2c(nc3ccccc32)N1 (stereo not given)

67.6
56.5

----------
For each of the molecules below, state its growth.
- Tested on: SF-539 CNS
- experiment_summary: NCI-60 one-dose screen, 48 h (100 = growth as untreated, 0 = no growth, -100 = all killed)
- condition_description: 10 µM unless noted
Compounds without any hit were thinned out: in the full panel of roughly 83,000, 20% have a hit.
Numbers only, in %.

{"molecule": "NS(=O)(=O)c1ccc(Nc2nc(SCC(=O)c3ccc(F)cc3)nc3ccccc23)cc1", "unit_tag": "%", "growth": 53.2}

# batch: return growth for each of the 5 molecules below
1. CN1C(=O)/C(=C/c2ccco2)S/C1=N/c1nccs1
2. COc1ccc2[nH]c(O)c(N=Nc3nc(-c4ccc(Cl)cc4)cs3)c2c1
3. CCc1ccccc1-c1nc(CN[C@@H]2C[C@@H]3C[C@H]([C@H]2C)C3(C)C)c(C)o1
4. COC(=O)c1cc(C(=O)C(C)(C)C)n2c3ccccc3c3ccccc3c12
5. COc1ccc(NC(=O)Cn2c(/C=C/c3ccc([N+](=O)[O-])cc3)nc3ccccc3c2=O)cc1

1: 103; 2: -60.5; 3: -96.5; 4: 96.7; 5: 30.3

----------
- Test system: PC-3 prostate
- experiment_summary: NCI-60 one-dose screen, 48 h
- condition_description: 10 µM unless noted
The panel holds about 83,000 compounds, 20% with a hit somewhere; the sample as a whole holds those more often. Activity calls are given as the source filed them. How the source made its calls: active means growth percent below 10; inactive means the rest.
Select the correct class. Options are true for active, false for inactive and nothing else.

Some entries whose results are on file:
{"compound": "CC(=O)Nc1ccc(S(=O)(=O)Nc2ccc(-c3ccc4c(c3)NC(=O)/C4=C\\c3ccc[nH]3)cc2)cc1", "assigned_class": "false"}
{"compound": "CC1=C(C(=O)OCc2ccccc2)C(c2ccc(N(C)C)cc2)n2c(nc3ccccc32)N1 (centres undefined)", "assigned_class": "false"}
{"compound": "Nc1nc(-c2ccccc2)c(N=Nc2ccc(Cl)cc2Cl)s1", "assigned_class": "true"}

Lab log entry: O=C1c2cccc3c(N4CCN(c5ccccc5)CC4)ccc(c23)C(=O)N1c1cccc(-c2nn(-c3ccccc3)cc2-c2nc3ccccc3s2)c1 — outcome as called in the assay? false

Dear all, I need the recorded test outcome for COC(=O)c1c(C(=O)OC)c2ccc3c4ccccc4ccc3n2c1C(=O)OC , thank you. false

Each compound tested received a call. Report the one for O=C1Nc2ccccc2/C1=C\c1ccc(OCC(=O)c2ccc(Br)cc2)cc1 . false

----------
- Test system: SNB-75 CNS
- experiment_summary: NCI-60 one-dose screen, 48 h (100 = growth as untreated, 0 = no growth, -100 = all killed)
- condition_description: 10 µM unless noted
Compounds without any hit were thinned out: in the full panel of roughly 83,000, 20% have a hit.
observation_type: growth (%)
Give bare numbers, in %.

{"record_smiles": "Nc1nnc(CS(=O)(=O)c2ccccc2)s1", "growth [%]": 102}
{"record_smiles": "COc1cc2cc(C(=O)N3C[C@@H](CCl)c4c3cc(OC(=O)N(C)CCSSCCN3CCOCC3)c3ccccc43)[nH]c2c(OC)c1OC", "growth [%]": -74.6}
{"record_smiles": "COc1cccc(/C=C/c2nc3ccccc3c(=O)n2CC(=O)Nc2ccccc2)c1", "growth [%]": -35.9}

Next item in the queue.
Can you share its growth? I mean this molecule: CC(C)C[C@H](NC(=O)[C@@H]1CCCCCCCCCCC(=O)N[C@@H](CC(=O)N2CCC[C@@H]2C2CCCC2)C(=O)N1)B(O)O -77

----------
- Tested on: NCI-H322M lung
- experiment_summary: NCI-60 one-dose screen, 48 h (100 = growth as untreated, 0 = no growth, -100 = all killed)
- condition_description: 10 µM unless noted
The panel holds about 83,000 compounds, 20% with a hit somewhere; the sample as a whole holds those more often.
observation_type: growth (%)
Numbers only, in %.

Look up growth for the entries below, preserving their order.
1. FC(F)(F)c1cc2c(Cl)ncnc2n1CCN1CCCCC1
2. N/C(=N\c1nc2ccc([N+](=O)[O-])cc2s1)NC(=O)Nc1ccccc1Cl
3. CCCSc1nnc(-c2c(C)nc3sccn23)o1
4. COc1cc(C2CC(c3ccc(S(=O)(=O)NCCNc4nc(N(C)C)nc(N5CCOCC5)n4)cc3)=Nc3c(N)nc(N)nc3N2)cc(OC)c1OC (centres undefined)
5. CCC(=O)c1c2c(c3ccc4c5ccccc5ccc4n13)C(=O)c1ccccc1C2=O
6. COc1ccccc1Nc1nnc(-c2c[nH]c3ccccc23)o1
7. O=C(CSc1nc2c(c(=O)[nH]1)CCCC2)Nc1ccccc1C(=O)O

1. 64.2
2. 61.7
3. 73.9
4. 79.8
5. 59.1
6. 43.5
7. 102

----------
- System: MALME-3M melanoma
- experiment_summary: NCI-60 one-dose screen, 48 h
- condition_description: 10 µM unless noted
The panel holds about 83,000 compounds, 20% with a hit somewhere; the sample as a whole holds those more often. Calls of active or inactive are those of the source. Rule for the calls: active = growth percent below 10; inactive = the rest.
Bench note: report the call from True for active, False for inactive

Some entries whose results are on file:
{"record_smiles": "Cc1nc2sccn2c1-c1nnc(SCc2ccccc2)o1", "target_system": "MALME-3M melanoma", "assigned_class": "False"}
{"record_smiles": "Cc1nn(-c2ccccc2)c2nc(C)n(C(=O)N/N=C/c3ccccc3)c(=O)c12", "target_system": "MALME-3M melanoma", "assigned_class": "False"}
{"record_smiles": "COc1nc(N)ncc1-c1ccc2ncnc(N3CCc4cc(F)c(Cl)cc43)c2c1", "target_system": "MALME-3M melanoma", "assigned_class": "False"}

Write down the call the test reported for this compound. Item: COc1cc(CNC(=O)C[C@H](C)CCC=C(C)C)ccc1OCc1cn(-c2cccc(C(F)(F)F)c2)nn1 False

What did this assay record as the result for COc1cc(/C=C/C(=O)c2cnn(-c3cc(=O)[nH]c4ccc(C)cc34)c2C)cc(OC)c1OC ? True

----------
- Test system: OVCAR-3 ovarian
- experiment_summary: NCI-60 one-dose screen, 48 h
- condition_description: 10 µM unless noted
Compounds without any hit were thinned out: in the full panel of roughly 83,000, 20% have a hit. Active and inactive are the calls of the source. The calls were made as follows: active = growth percent below 10; inactive = the rest.
Log the outcome using a class from 1 for active, -1 for inactive

Observe how each entry below is paired with its result.
{"molecule": "O=C(N/N=C/c1ccc(Br)o1)c1[nH]c2ccc(Br)cc2c1-c1ccccc1", "target_system": "OVCAR-3 ovarian", "assigned_class": 1}
{"molecule": "O=C(Nc1ccc(Br)cc1)Nc1ccc(-c2ccc3c(c2)NC(=O)/C3=C\\c2ccc[nH]2)cc1", "target_system": "OVCAR-3 ovarian", "assigned_class": -1}
{"molecule": "O=C(c1ccc(Cl)cc1)C1[C@H](c2ccccc2Cl)[C@@H](c2ccccc2)NC12C(=O)Nc1ccc(Cl)cc12 (some centres undefined)", "target_system": "OVCAR-3 ovarian", "assigned_class": 1}

GET /call?item= COc1cc(/C=C/C(=O)c2cnn(-c3cc(=O)[nH]c4ccccc34)c2C)cc(OC)c1OC returns the recorded outcome of this test. 1

Which outcome was assigned to O=C(CSc1nc2ccccc2c(=O)[nH]1)NNC(=O)c1ccccc1Cl in this test? -1

Hey, what did the test say about COc1ccc(-c2cc(-c3cc(OC)c(OC)c(OC)c3)[nH]c(=O)c2C#N)cc1 ? -1

Short answer needed: outcome of this test for COc1cc(CNC(=O)C[C@H](C)CCC=C(C)C)ccc1OCc1cn(-c2ccc(Cl)cc2Cl)nn1 ? -1

Assay result, entry COc1ccc(NC(=O)N/N=C/c2c[nH]c3ccccc23)cc1 — outcome? 1

----------
- Test system: SF-268 CNS
- experiment_summary: NCI-60 one-dose screen, 48 h (100 = growth as untreated, 0 = no growth, -100 = all killed)
- condition_description: 10 µM unless noted
The panel holds about 83,000 compounds, 20% with a hit somewhere; the sample as a whole holds those more often. The source made the active and inactive calls. How the source made its calls: active means growth percent below 10; inactive means the rest.
observation_type: growth

{"compound": "O=C(Cc1c(-c2cccc([N+](=O)[O-])c2)n(-c2ncnc3c2c(-c2ccccc2)c(-c2ccccc2)n3Cc2ccccc2)[nH]c1=O)c1ccc(Cl)c(Cl)c1", "growth": "62.3% (inactive)"}
{"compound": "COc1cccc(NC(=O)c2ccc(NC(=O)CCl)s2)c1", "growth": "45.7% (inactive)"}
{"compound": "Cc1cccc(/C=C/c2ccc(NC(=S)NCCCCN(C)C)cc2)c1", "growth": "-52.4% (active)"}
{"compound": "CCCn1c(NC(=O)c2cccc(C(N)=O)c2)nc2cc(CN3CCCCC3)ccc21", "growth": "111% (inactive)"}
{"compound": "COC(=O)c1cc(C(C)=O)n2c3ccccc3c3ccccc3c12", "growth": "59.5% (inactive)"}
{"compound": "COc1cc(C2C(C(=O)OCc3ccccc3)=C(C)Nc3nc4ccccc4n32)cc(OC)c1OC (centres undefined)", "growth": "15.1% (inactive)"}
{"compound": "Cc1[nH]nc2ccc3nc(-c4cn[nH]c4C(F)(F)F)c4c(c3c12)CCCC4", "growth": "18% (inactive)"}
{"compound": "Cc1ccc(Nc2nnc(-c3c[nH]c4ccccc34)o2)c(C)c1", "growth": "32.5% (inactive)"}

Next compound, growth to be filled in.
Fill in the recorded growth for this compound, with SF-268 CNS as test system: CCCCNc1ccc2c3c(cccc13)C(=O)N(c1cccc(-c3nn(-c4ccccc4)cc3-c3nc4ccccc4s3)c1)C2=O 109% (inactive)

Data provenance: PubChem BioAssay (NCI)
